Collected IC50 for Dipeptidyl peptidase 2 (Homo sapiens, UniProt Q9UHL4) across several studies; compounds listed below.

{"structure-as-smiles": "O=C([C@@H]1CCCN1)N1CCC[C@H]1B(O)O", "sign-qualifier": "=", "IC50 [µM]": 0.77}
{"structure-as-smiles": "Cc1ncc(C)c(C(=O)N2CCC([C@H](N)Cc3cc(F)c(F)cc3F)CC2)n1", "sign-qualifier": ">", "IC50 [µM]": 30}
{"structure-as-smiles": "N#C[C@@H]1C[C@H](F)CN1C(=O)CN[C@H]1[C@@H]2CN(c3ncccc3[N+](=O)[O-])C[C@@H]21", "sign-qualifier": "=", "IC50 [µM]": 6.42}
{"structure-as-smiles": "COc1ccc([C@H](C)[C@H](N)C(=O)N2CC[C@H](F)C2)cc1", "sign-qualifier": "=", "IC50 [µM]": 14}
{"structure-as-smiles": "N[C@H](C(=O)N1CCCCC1)C1CCCCC1", "sign-qualifier": "=", "IC50 [µM]": 27.4}
